System: MM1.S cells
MEASUREMENT_NOTES: MTT cell proliferation assay
Assay type: cell-based
STATED_CONDITIONS: Homo sapiens
ASSAY_READOUT: pIC50
# pIC50: negative log10 of molar concentration; output just the value

QUERY: What measured pIC50 goes with CC(C)Oc1cc(-c2ncn(/C=C\C(=O)OCc3cnccn3)n2)cc(C(F)(F)F)c1 [Compound 130] ?
RESULT: 8.40

Others:
QUERY: What measured pIC50 goes with CC(C)Oc1cc(-c2ncn(/C=C\C(=O)OCc3cncnc3)n2)cc(C(F)(F)F)c1 [Compound 129] ?
RESULT: 7.70
